Let's look at some compounds and their measured IC50.
Biological target: Histone deacetylase 2 (Homo sapiens, UniProt Q92769)
Sequence (Q92769 whole entry): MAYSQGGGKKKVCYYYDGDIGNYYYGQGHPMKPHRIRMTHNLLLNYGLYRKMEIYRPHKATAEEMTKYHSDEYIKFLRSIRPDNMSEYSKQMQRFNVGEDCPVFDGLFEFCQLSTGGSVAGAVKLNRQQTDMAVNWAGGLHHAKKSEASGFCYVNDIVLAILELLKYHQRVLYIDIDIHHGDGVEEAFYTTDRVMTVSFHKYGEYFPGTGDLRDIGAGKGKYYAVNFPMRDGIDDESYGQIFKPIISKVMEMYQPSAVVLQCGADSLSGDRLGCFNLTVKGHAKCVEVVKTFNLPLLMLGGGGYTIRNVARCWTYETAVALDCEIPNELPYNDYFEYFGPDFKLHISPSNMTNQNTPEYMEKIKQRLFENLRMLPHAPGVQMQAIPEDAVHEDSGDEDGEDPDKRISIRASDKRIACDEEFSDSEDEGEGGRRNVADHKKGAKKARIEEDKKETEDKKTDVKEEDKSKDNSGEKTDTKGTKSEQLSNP
// return numeric value only (unit: nM, not printed)

Reference set (2 entries):
[
  {
    "SMILES": "N#CCCN(C(=O)CCl)c1ccc2c(c1)OCCN2CC(=O)N1CCC(C(=O)Nc2ccc(C(=O)NCCCCCCC(=O)NO)cc2)CC1",
    "IC50 [nM]": 196
  },
  {
    "SMILES": "N#CCCN(C(=O)CCl)c1ccc2c(c1)OCCN2CC(=O)NCCCCCCCC(=O)Nc1ccc(C(=O)NCCCCCCC(=O)NO)cc1",
    "IC50 [nM]": 143
  }
]

// below: IC50 requested for another compound
-- ask Need IC50, item `N#CCCN(C(=O)CCl)c1ccc2c(c1)OCCN2CC(=O)NCC(=O)Nc1ccc(C(=O)NCCCCCCC(=O)NO)cc1`
-- reply 156

---

The following compounds are shown together with reported EC50 values.
Test system: MM1.S
Assay: Antiproliferative activity against human MM1.S cells assessed as cell viability measured after 72 hrs incubation by MTT assay
Format: functional, cell-based
Value and unit, in that order.

[
  {
    "SMILES": "N#CCCN(C(=O)CCl)c1ccc2c(c1)OCCN2CC(=O)N1CCC(C(=O)Nc2ccc(C(=O)NCCCCCCC(=O)NO)cc2)CC1",
    "EXPERIMENTAL TARGET": "MM1.S",
    "EC50": "4.73 µM"
  }
]

Now look at this entry.
-- ask Give the measured EC50 of `N#CCCN(C(=O)CCl)c1ccc2c(c1)OCCN2CC(=O)NCCCCCCCC(=O)Nc1ccc(C(=O)NCCCCCCC(=O)NO)cc1` .
-- reply 2.28 µM

---

Tested on: MM1.S
Assay: Induction of apoptosis in human MM1.S cells assessed as increase in early apoptotic cells at 10 uM measured after 48 hrs by annexin V-FITC/PI staining based assay
Format: functional, cell-based
Activity calls are given as the source filed them. The calls are words filed in the database; no cut-off is given here.
Your response should consist of one outcome taken from active, inactive

-- ask Recorded test outcome, item `N#CCCN(C(=O)CCl)c1ccc2c(c1)OCCN2CC(=O)NCCCCCCCC(=O)Nc1ccc(C(=O)NCCCCCCC(=O)NO)cc1`
-- reply active

-- ask Lookup `N#CCCN(C(=O)CCl)c1ccc2c(c1)OCCN2CC(=O)NCC(=O)Nc1ccc(C(=O)NCCCCCCC(=O)NO)cc1`
-- reply active

-- ask Then `N#CCCN(C(=O)CCl)c1ccc2c(c1)OCCN2CC(=O)N1CCC(C(=O)Nc2ccc(C(=O)NCCCCCCC(=O)NO)cc2)CC1` ?
-- reply active

-- ask Same lookup for O=C(CCCCCCNC(=O)c1ccc(NC(=O)CCCCCCCNC(=O)COc2cccc3c2C(=O)N(C2CCC(=O)NC2=O)C3=O)cc1)NO (stereo not given) , please.
-- reply inactive

-- ask Then what about the compound `CCC(=O)N(CCC#N)c1ccc2c(c1)OCCN2CC(=O)NCC(=O)Nc1ccc(C(=O)NCCCCCCC(=O)NO)cc1.O=C(O)C(F)(F)F` ?
-- reply inactive
